# Measured target: T1, E. coli β clamp (β subunit of DNA polymerase III, dnaN gene product) (E. coli, UniProt P0A988 1-366)
# T1 construct: Expressed in BL21 E. coli from pET15b with an N-terminal tag; also called β ring; β protein; not shown: N-terminal tag from plasmid pET15b ('N-tagged protein', purified on Ni-NTA)
# T1 sequence (P0A988 whole entry): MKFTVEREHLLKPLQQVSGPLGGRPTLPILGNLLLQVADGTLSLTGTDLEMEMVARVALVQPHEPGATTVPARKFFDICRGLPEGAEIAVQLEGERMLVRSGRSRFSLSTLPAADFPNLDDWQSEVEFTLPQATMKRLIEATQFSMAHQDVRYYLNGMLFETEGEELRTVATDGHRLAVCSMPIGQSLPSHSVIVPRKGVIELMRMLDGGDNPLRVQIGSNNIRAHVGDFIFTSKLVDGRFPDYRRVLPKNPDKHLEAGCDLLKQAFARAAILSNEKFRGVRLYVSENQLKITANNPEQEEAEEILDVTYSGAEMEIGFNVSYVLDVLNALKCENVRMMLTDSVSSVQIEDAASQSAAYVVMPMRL
# Test method notes: SPR competition, β ring on immobilised P1
Square brackets hold non-standard residues; d marks the D form. Phe(3,4-Cl2) = N[C@@H](Cc1ccc(Cl)c(Cl)c1)C(=O)O; Phe(4-Br) = N[C@@H](Cc1ccc(Br)cc1)C(=O)O; Cha = N[C@@H](CC1CCCCC1)C(=O)O
Answer each item with its documented pIC50.
Please treat pIC50 as minus the base-10 logarithm of the molar concentration.

[ask] Which pIC50 is listed for Ac-Q[Cha]DLF-OH (SMILES CC(=O)N[C@@H](CCC(N)=O)C(=O)N[C@@H](CC1CCCCC1)C(=O)N[C@@H](CC(=O)O)C(=O)N[C@@H](CC(C)C)C(=O)N[C@@H](Cc1ccccc1)C(=O)O, also called AcQChaDLF; Ac Q Cha D L F) [P7 (Ac-Gln-Cha-Asp-Leu-Phe-OH)] ?
[reply] 6.77

[ask] Which pIC50 is listed for Ac-Q[Cha]DL[Phe(3,4-Cl2)]-OH (SMILES CC(=O)N[C@@H](CCC(N)=O)C(=O)N[C@@H](CC1CCCCC1)C(=O)N[C@@H](CC(=O)O)C(=O)N[C@@H](CC(C)C)C(=O)N[C@@H](Cc1ccc(Cl)c(Cl)c1)C(=O)O, also called AcQChaDLdiClF; Ac Q Cha D L diClF) [P14 (Ac-Gln-Cha-Asp-Leu-(3,4-di-Cl)Phe-OH)] ?
[reply] 7.11

[ask] Which pIC50 is listed for Ac-Q[Cha]DL[Phe(4-Br)]-OH (SMILES CC(=O)N[C@@H](CCC(N)=O)C(=O)N[C@@H](CC1CCCCC1)C(=O)N[C@@H](CC(=O)O)C(=O)N[C@@H](CC(C)C)C(=O)N[C@@H](Cc1ccc(Br)cc1)C(=O)O, also called AcQChaDLpBrF; Ac-Q Cha DL pBrF) [P13 (Ac-Gln-Cha-Asp-Leu-pBrPhe-OH)] ?
[reply] 7.02
